- Tested target: MMP-7FL (full-length matrilysin) (Homo sapiens)
- Sequence (P09237 95-267): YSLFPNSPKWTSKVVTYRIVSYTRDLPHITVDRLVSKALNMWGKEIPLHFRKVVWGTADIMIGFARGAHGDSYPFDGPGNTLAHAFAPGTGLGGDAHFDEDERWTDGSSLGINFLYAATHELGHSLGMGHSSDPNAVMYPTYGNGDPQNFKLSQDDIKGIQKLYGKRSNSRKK
- Protocol: Thiopeptolide hydrolysis assay, MMP-7FL
- Format: biochemical
- Recorded conditions: Table 2; thiopeptolide substrate, HEPES pH 7.0; read-out: IC50 (μM) Versus Certain MMPs: MMP07 (FL)
Outcome measure: IC50

| Molecule | Result |
| --- | --- |
| COc1ccc(CNC(=O)c2ccc3c(c2)S(=O)(=O)N(Cc2ccc(C(=O)NC(C(=O)O)C(C)C)cc2)C(=O)N3C)cc1 (centres unmarked) | > 100 µM |
| COc1ccc(CNC(=O)c2ccc3c(c2)S(=O)(=O)N(Cc2ccc(C#N)cc2)C(=O)N3C)cc1 | > 30 µM |
| COc1cc(CNC(=O)c2ccc3c(c2)S(=O)(=O)N(Cc2ccccc2)C(=O)N3C)ccn1 | > 30 µM |
| COc1ccc(CNC(=O)c2ccc3c(c2)S(=O)(=O)N(Cc2ccc(C(=O)N4CCCCC4)cc2)C(=O)N3C)cc1 | > 30 µM |
| COc1cccc(CNC(=O)c2ccc3c(c2)S(=O)(=O)N(Cc2ccc(C(=O)O)cc2)C(=O)N3C)c1 | > 30 µM |

* * *

Listed here: items and their measured log10(IC50).
- Tested target: MMP-13CD (catalytic domain of collagenase 3) (Homo sapiens, UniProt P45452)
- Protocol: Thiopeptolide hydrolysis assay, MMP-13CD
- Assay type: biochemical
- Recorded conditions: Table 2; thiopeptolide substrate, HEPES pH 7.0; read-out: IC50 (μM) Versus Certain MMPs: MMP13 (CD)
Where a name gives a salt, the structure may show the parent alone.
Outcome measure: log10(IC50) (log10 of the value in µM)

| Molecule | log10(IC50) |
| --- | --- |
| COc1cccc(CNC(=O)c2ccc3c(c2)S(=O)(=O)N(Cc2ccc(C(=O)O)cc2)C(=O)N3C)c1 | -2.31 |
| COC(=O)Nc1cc(CN2C(=O)N(C)c3ccc(C(=O)NCc4ccc(OC)cc4)cc3S2(=O)=O)on1 | 0.23 |
| COC(=O)c1ccc(CN2C(=O)N(C)c3ccc(C(=O)NCc4ccc(F)cc4)cc3S2(=O)=O)cc1 | -0.41 |
| COc1ccc(CNC(=O)c2ccc3c(c2)S(=O)(=O)N(Cc2ccc(C(=O)N4CCCCC4)cc2)C(=O)N3C)cc1 | -0.54 |
| CNS(=O)(=O)c1ccc(CN2C(=O)N(C)c3ccc(C(=O)NCc4ccc(OC)cc4)cc3S2(=O)=O)cc1 | -0.51 |
| CC/C=C/CN1C(=O)N(C)c2ccc(C(=O)NCc3ccc(OC)cc3)cc2S1(=O)=O | 0.18 |
| COc1ccc(CNC(=O)c2ccc3c(c2)S(=O)(=O)N(Cc2ccc(C(=O)OCCN(C)C)cc2)C(=O)N3C)cc1 [Example 26, Hydrochloride] | 0.34 |
| C/C=C/CN1C(=O)N(C)c2ccc(C(=O)NCc3ccc(OC)cc3)cc2S1(=O)=O | 0.34 |
| CN1C(=O)N(Cc2ccc(C(=O)O)cc2)S(=O)(=O)c2cc(C(=O)NCc3ccc(F)cc3)ccc21 | -1.72 |
| COc1ccc(CNC(=O)c2ccc3c(c2)S(=O)(=O)N(Cc2ccccc2)C(=O)N3C)cc1 | -0.77 |
| COc1ccc(CNC(=O)c2ccc3c(c2)S(=O)(=O)N(CCNC(=O)c2ccccc2)C(=O)N3C)cc1 | 1.93 |
| CN1C(=O)N(Cc2ccc(C(=O)O)cc2)S(=O)(=O)c2cc(C(=O)NCc3ccccc3)ccc21 | -1.18 |
| CN1C(=O)N(Cc2ccccc2)S(=O)(=O)c2cc(C(=O)NCc3ccc(CCS(N)(=O)=O)cc3)ccc21 | 1.80 |
